target: fusion glycoprotein of the MPV D280 used in the neutralization assay of Example 3 (metapneumovirus (strain not stated)); experiment: cell-based or functional assay
Criterion: MPV D280 Neutralization - IC50 strictly under 0.02 µg/mL. Met: label 1. Not met: label 0.

Quick check: MPV D280 Neutralization - IC50 of MPK150-v2 (antibody, V domains shown) VH: EVQLVESGGGLVKPGGSLRLSCEASGISLSGYYMIWIRQAPGKGLEWISSISGSSTYIDYADSVRGRFTISRHNGQNTIYLQMNSLRVEDTAVYFCATEQTPSPGPFELWGRGILVTVSS VL: QSVLTQPPSVSGAPGQRVTIFCTGTSSNIGTGYDVHWYQQFPGTSPKLLIFRNSNRPSGVPDRFSGSKSGSSASLAIAGLQAEDEADYYCQSYDRGVNGWVFGGGTKLTVL under 0.02 µg/mL? label 1

Strictly below 0.02 µg/mL in MPV D280 Neutralization - IC50? MPK127 (antibody, V domains shown) VH: QVQLVISGGGLVKPGGSLRLSCAASGFRIDSFSLNWVRQAPGKGLEWLASVSASSSYIDYRDSVAGRFTISRDNAQNSLYLQMDTLRAEDTAVYYCARTNGYETGSFDVWGQGTLVTVAS VL: QSVLTQPPSVSGAPGQRVTISCTGSSSNIGAGYDVHWYQQLPGKAPKLLINANNNRPSGVPDRFSGSNSGTSASLAITGLQAEDEADYYCQSYDKTLSGYVFGLGTTVTVL label 0

Does the reported MPV D280 Neutralization - IC50 of MPK129 (antibody, V domains shown) VH: EVQLVESGGGLVKPGGSLRLSCEASGFSLSGYYMIWIRQAPGKGLEWISSISGSGNYIDYADSVKGRFTISRDNGHNTLYLQMNSLRVEDTAVYYCATEQTPSPGPFDHWGQGTLVTVSS VL: QTVVTQPPSVSGAPGQRVTISCTGTSSNIGTGYDVHWYQQFPGTSPKLLIYRNTNRPSGVPDRFSGSKSGSSASLAIAGLQAEDEADYYCQSYDRSVSGWVFGGGTKLTVL stay below 0.02 µg/mL? label 1

Please state whether MPV D280 Neutralization - IC50 is below 0.02 µg/mL for MPK142-v1 (antibody, V domains shown) VH: EVQLVESGGGLVEPGGSLRLSCAASGFTISGYGMSWVRQAPGKGLEWVSSISASSSYIYYGDAMKGRITISRDNGWNSMYLQMNSLRTEDTAVYYCATAPIEPPYFDLWGRGTLVTVSS VL: QSVLTQPPSVSGAPGQRVTISCTGSSSNIGAGYDVHWYQQFPGKAPKVLIYGNNNRPSGVPDRFAASNSGASASLAITGLQAEDEAAYFCQSYDRRLSGPVFGGGTKLTVL label 1

Please let me know if MPK126 (antibody, V domains shown) VH: EVQLVESGGGLVKPGGSMRLSCAASGVTLSGYYMIWIRQAPGKGLEWISDISASSTYTDYADSVKGRFTVSRDNSQNTVYLQMNSLRAEDTAVYYCATEQTPSPGPFDLWGQGTLVTVSS VL: QSVLTQPPSVSGAPGQRVTISCTGSSSNVGAGYDVHWYQQFPGTSPKLLIYRNTNRPSGVPDRFSGFKSGTSASLAITGLEAEDEADYYCQSYDRSLSGWVFGAGTKLTVL shows MPV D280 Neutralization - IC50 below 0.02 µg/mL. label 0

Each recorded value in this set is attributed to patent US20260028391A1.
